SYSTEM TESTED: mouse TMEM16A mutant V599A (Mus musculus, UniProt Q8BHY3, V599A)
Construct: expressed in transfected cells; host or cells: HEK293T
Sequence (Q8BHY3 1-960 V599A): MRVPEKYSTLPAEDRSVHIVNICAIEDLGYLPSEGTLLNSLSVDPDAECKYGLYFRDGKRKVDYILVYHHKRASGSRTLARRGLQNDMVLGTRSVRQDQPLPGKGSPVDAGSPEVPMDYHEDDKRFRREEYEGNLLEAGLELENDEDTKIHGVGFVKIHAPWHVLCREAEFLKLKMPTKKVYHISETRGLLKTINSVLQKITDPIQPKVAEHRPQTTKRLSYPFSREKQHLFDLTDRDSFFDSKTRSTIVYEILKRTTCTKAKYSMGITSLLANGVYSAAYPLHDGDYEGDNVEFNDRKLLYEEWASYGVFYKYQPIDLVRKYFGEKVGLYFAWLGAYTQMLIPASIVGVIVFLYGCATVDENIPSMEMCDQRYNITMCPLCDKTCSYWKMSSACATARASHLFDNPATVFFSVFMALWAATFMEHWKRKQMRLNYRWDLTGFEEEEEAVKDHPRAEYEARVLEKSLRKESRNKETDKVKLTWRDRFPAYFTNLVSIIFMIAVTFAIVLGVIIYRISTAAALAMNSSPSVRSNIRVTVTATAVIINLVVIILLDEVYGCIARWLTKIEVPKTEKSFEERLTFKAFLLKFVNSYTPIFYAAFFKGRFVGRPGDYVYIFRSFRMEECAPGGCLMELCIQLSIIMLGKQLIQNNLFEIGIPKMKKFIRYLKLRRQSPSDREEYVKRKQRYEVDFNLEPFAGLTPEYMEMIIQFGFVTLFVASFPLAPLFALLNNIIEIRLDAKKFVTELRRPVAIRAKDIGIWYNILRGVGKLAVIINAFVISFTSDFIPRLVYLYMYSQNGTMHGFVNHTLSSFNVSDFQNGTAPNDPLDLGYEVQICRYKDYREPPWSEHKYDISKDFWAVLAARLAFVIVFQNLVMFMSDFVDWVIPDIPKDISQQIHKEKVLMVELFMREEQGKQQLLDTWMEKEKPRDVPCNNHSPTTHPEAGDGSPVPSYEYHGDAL
EXPERIMENT: Inside-out patch recording of 1PBC block, mutant V599A
Format: cell-based
CONDITION NOTES: V599A; V 0 mV
MEASUREMENT LABEL: IC50 (µM)
Express it in µM; write the number only.

INPUT: API: value(readout= IC50, system= mouse TMEM16A mutant V599A (Mus musculus, UniProt Q8BHY3, V599A), query= N#Cc1c(C(F)(F)F)cc(O)n2c1nc1ccccc12 )
OUTPUT: 69.5

###

SYSTEM TESTED: mouse TMEM16A mutant N546A (Mus musculus, UniProt Q8BHY3, N546A)
Construct: expressed in transfected cells; host or cells: HEK293T
EXPERIMENT: Inside-out patch recording of 1PBC block, mutant N546A
Format: cell-based
CONDITION NOTES: -20 mV; 2 µM Ca2+
MEASUREMENT LABEL: IC50 (nM)
Express it in nM; write the number only.

INPUT: API: value(readout= IC50, system= mouse TMEM16A mutant N546A (Mus musculus, UniProt Q8BHY3, N546A), query= N#Cc1c(C(F)(F)F)cc(O)n2c1nc1ccccc12 )
OUTPUT: 805
